Just for reference, patent US9340577B2 is where these values come from.

Give measured pIC50 for each item. Keep answers brief.
- Tested On: DR1 (DRB1*0101) (Homo sapiens, UniProt P01903+P01911, A100R/D57E/F55L/F60I/F76Y/I96L/L162R/M171V/P40L/Q125E/R42F/V115G/Y59C)
- Assay Info: biochemical
- Format: binding
No end group written: not given here.
Answers are plain numbers, as −log10 of the molar value.

Look up pIC50: GTDMKLRLSASPETH [Peptide 9014.0102]
7.19

What does the record list as pIC50 for QQQMFLGTVKIPPTV [Peptide 89.0187] ?
6.13

GET /values?readout=pIC50&item= LKAICIENNSKTAKR [Peptide 90.0064]
7.21

New cases:
Query (sequence): ETCMLIEPPKLRSSV [Peptide 89.0084] ; field requested: pIC50
7.46

###

- Tested On: B*0701 (Homo sapiens)
- Assay Info: biochemical
- Run Conditions: B*0701 (nM), Binding of peptides to B7-like supermotif alleles, Table 36
Parameter Measured: IC50 (nM)
One number for each entry, in nM.

State the recorded IC50 for this entry: CC[C@H](C)[C@H](NC(=O)[C@@H](NC(=O)[C@H](CC(C)C)NC(=O)[C@H](CC(C)C)NC(=O)CNC(=O)[C@@H](NC(=O)[C@H](CCCCN)NC(=O)[C@@H]1CCCN1C(=O)[C@@H](N)CCSC)[C@@H](C)O)[C@@H](C)CC)C(=O)O [15.108]
2790

Which IC50 is listed for CC(C)C[C@H](NC(=O)[C@H](CC(N)=O)NC(=O)[C@@H]1CCCN1C(=O)[C@@H](NC(=O)[C@H](C)NC(=O)[C@H](Cc1ccccc1)NC(=O)[C@H](CCCCN)NC(=O)[C@@H]1CCCN1C(=O)[C@@H](N)Cc1c[nH]c2ccccc12)C(C)C)C(=O)O [15.035] ?
1010

Which IC50 value belongs to CC[C@H](C)[C@H](NC(=O)[C@H](CC(C)C)NC(=O)[C@H](CC(C)C)NC(=O)CNC(=O)[C@@H](NC(=O)[C@H](CCCCN)NC(=O)[C@@H]1CCCN1C(=O)[C@@H](N)CCSC)[C@@H](C)O)C(=O)N[C@H](C(=O)N[C@H](C(=O)O)C(C)C)[C@@H](C)CC [15.283] ?
18000

Proceeding to the next compound to report its IC50.
Record request: IC50 value, item CC(C)C[C@H](NC(=O)[C@@H](NC(=O)[C@H](CCCNC(=N)N)NC(=O)[C@@H]1CCCN1C(=O)[C@@H](N)CO)[C@@H](C)O)C(=O)N[C@@H](CC(N)=O)C(=O)N[C@@H](C)C(=O)N[C@@H](Cc1c[nH]c2ccccc12)C(=O)N[C@H](C(=O)O)C(C)C [15.071]
9.8

###

- Tested On: A*6802 (Homo sapiens, UniProt P04439, A269V/D140Y/D185E/E176V/E277Q/E87N/F33Y/G231S/I121R/I166T/I218V/L180W/L300P/L318F/N151K/P208A/P217A/Q86R/R138H/R169H/S129P/T345S/V36M)
- Assay Info: biochemical
- Assay type: binding
No end group written: not given here.
Parameter Measured: log10 IC50 (log10 of the value in µM)
Answers are given as log10 of IC50 in µM.

Reference set (5 entries):
Quick one: log10 IC50 for YLYYRPGVNL [Peptide 9013.0209] ?
-0.02

Form field: reported log10 IC50 of TLELFISNI [Peptide 9013.0082]
-0.02

Requested field: log10 IC50. Item: EVFIPNITV [Peptide 9013.0062]
-2.40

What value of log10 IC50 has been reported for the following sequence? LQGSVICFV [Peptide 1578.06]
0.55

Requested field: log10 IC50. Item: RLTVTTITV [Peptide 9013.0067]
1.11

Turning now to a further sequence:
What value of measured log10 IC50 is listed for YTNWKFIYL [Peptide 1578.47] ?
-0.84
